system_under_test: Marburg virus GP (Ravn) (Marburg virus, Ravn strain, UniProt Q1PDC7 19-681)
experiment_summary: cell-based or functional assay
property: VSVdG/GP Neutralization (%)
Answers are plain numbers, in %.

Known results for binders:
CAN30G1 (antibody, V domains shown) VH: QIQLVQSGPELKKPGETVKISCKASGYTFTNYGMNWVKQAPGKGLKWMGWINTYTGKPTYVDDFKGRFAFSLETSANTAYLQINNLKNEDTATYFCESGGYDEDYWGQGTTLTVSS VL: ENVLTQSPAIMSASPGEKVTMTCSASSSVTYMHWYQQKSSTSPKLWIYDTSKLASGVPGRFSGSGSGNSYSLTISSMEAEDVATYYCFQGSGYPYTFGGGTKLEIK	5
CAN40G1 (antibody, V domains shown) VH: EVQLQQSGPELVKPGASVKISCRTSGYTFTEYTIHWVKQSRGKSLEWIGGINPNHGGTLYNQKFKVKATLTVDKSSSTAYMELRSLTSEDSAVYYCARFTYDYWGQGTTLTVSS VL: DIVLTQSPASLAVSLGQRASISCKASQSVDHDGDSYMNWYQQKPGQPPKLLIYATSNLESGIPARFSGSGSGTDFTLNIHPVEEEDAATYYCQQSYEVPLTFGAGTKLELK	0
CAN30G3 (antibody, V domains shown) VH: QVQLKESGPGLVAPSQSLSITCTVSGFSLTDYGITWIRQPPGKGLEWLGVIWGGGSAYYNLVLKSRLSISKDNSKSQVFLKMNSLQTDDTAMYYCAKHRTLITTAMDYWGQGISVTVSS VL: DVLMTQTPLSLPVSLGDQASISCRSSQNIVHSNGNTYLEWYLQKSGQSPKLLIYKVSNRFSGVPDRFSGSGSGTDFTLKISRVEAEDLGVYYCFQGSHFPWTFGGGTKLEIK	40

Attention now turns to another entry.
IN: Which measured VSVdG/GP Neutralization value corresponds to CAN30G4 (antibody, V domains shown) VH: EVKLVESGGGLVKSGGSLKLSCAVSGFTFSTYAMSWVRQIPEKRLEWVATISNGGSYIYYSDSVKGRFTISRDNAKNTLYLQMSSLRSEDTAMYYCARHRESYRYDWFAYWGQGTLVTVSA VL: DVLMTQTPLSLPVSLGDQASISCRSSQNIVHSDGNTYLEWYLQKPGQSPKLLIYKFSNRFSGVPDRFSGSGSGTDFTLKISRVEAEDLGVYYCFQGSHVPPTFGAGTKLELK ?
OUT: 50
